biological target: cynomolgus IL-36R on BaF/3 cells (cynomolgus, UniProt A0A2K5WSK9 20-558); assay: cell-based or functional assay
Sequence (A0A2K5WSK9 entry or part of it): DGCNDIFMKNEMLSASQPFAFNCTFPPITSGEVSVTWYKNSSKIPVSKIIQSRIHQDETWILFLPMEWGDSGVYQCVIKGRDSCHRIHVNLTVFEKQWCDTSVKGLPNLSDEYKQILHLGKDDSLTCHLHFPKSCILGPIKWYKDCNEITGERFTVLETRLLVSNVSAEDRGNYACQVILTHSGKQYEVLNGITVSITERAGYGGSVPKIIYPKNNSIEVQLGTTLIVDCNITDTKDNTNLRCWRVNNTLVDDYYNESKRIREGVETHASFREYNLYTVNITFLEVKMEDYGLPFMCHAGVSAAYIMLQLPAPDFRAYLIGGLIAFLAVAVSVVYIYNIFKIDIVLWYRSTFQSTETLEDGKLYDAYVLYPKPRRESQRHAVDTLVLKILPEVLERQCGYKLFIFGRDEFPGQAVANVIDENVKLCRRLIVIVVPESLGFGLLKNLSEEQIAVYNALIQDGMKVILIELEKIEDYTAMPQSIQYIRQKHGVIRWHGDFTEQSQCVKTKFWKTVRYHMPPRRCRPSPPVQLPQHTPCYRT
Documented IC90, pNFκB, BaF/3 cynomolgus IL-36R cells, trun-IL-36b across a set of binders

binder: antibody 172C8 (antibody, V domains shown, Mouse monoclonal from hybridoma; also called 172C8B12) VH: EVQLQQSGPELVKPGASVKLSCKASGYTFTDNYMNWVRQSHGKSLEWIGRVNPSNGDTKYNQNFKGKATLTVDKSLSTAYMQLNGLTSEDSAVYYCGRTKNFYSSYSYDDAMDYWGQGTSVTVSS VL: DIQMTQSPASQSASLGESVTFTCLASQTIGTWLAWYQQRPGKSPQLLIYAATSLADGVPSRFSGSGSGTQFSFNIRSLQAEDFASYYCQQVYTTPLTFGGGTKLEIK
result: > 333 nM

# IC90, pNFκB, BaF/3 cynomolgus IL-36R cells, trun-IL-36b of antibody 76E10 (antibody, V domains shown, Mouse monoclonal from hybridoma; also called 76E10E8) VH: QVQLKESGPVLVAPSQSLSITCTVSGFSLTNYGVHWVRQPPGKGLEWLGVIWPVGSTNYNSALMSRLSIHKDNSKSQVFLRMNSLQTDDTAIYYCAKMDWDDFFDYWGQGTTLTVSS VL: DIVMTQSQKFMSATVGGRVNITCKASQNVGRAVAWYQQKPGQSPKLLTHSASNRYTGVPDRFTGSGSGTDFTLTITNMQSEDLADYFCQQYSSYPLTFGAGTKLDLK = > 333 nM

# IC90, pNFκB, BaF/3 cynomolgus IL-36R cells, trun-IL-36b of antibody 81B4 (antibody, V domains shown, Mouse monoclonal from hybridoma; also called 81B4E11; Mouse 81B4) VH: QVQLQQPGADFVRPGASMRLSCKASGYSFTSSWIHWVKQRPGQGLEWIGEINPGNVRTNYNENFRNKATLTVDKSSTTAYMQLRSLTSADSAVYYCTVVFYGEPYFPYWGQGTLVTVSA VL: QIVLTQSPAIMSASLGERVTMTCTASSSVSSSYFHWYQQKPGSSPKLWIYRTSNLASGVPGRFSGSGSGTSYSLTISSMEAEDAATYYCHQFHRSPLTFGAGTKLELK = 3.5 nM
